- Tested on: XIP peptide (Xip251-270)
- assay details: small-molecule binders of XIP peptide, primary screen, biochemical, small-molecule microarray, fluorescence 635/667 nm, 0.5 µg/mL protein (AID 1183)
- experimental parameters: small-molecule microarray binding, fluorescence 635 nm; higher = more signal
Kindly state composite z-score for each of the entries shown.
// print number alone

Look at this molecule and give its reported composite z-score. `CCOC(=O)C1=CC[C@@H](c2ccccc2)N(S(=O)(=O)c2ccc(C)cc2)[C@H]1c1ccccc1C`
0.291

Look at this molecule and give its reported composite z-score. CN1C(=O)C2C=CC(C(O)c3ccccc3)N(N(c3ccccc3)c3ccccc3)C2C1=O (configuration not stated)
-0.0284

Look at this molecule and give its reported composite z-score. `COc1ccc(C#Cc2ccc3c(c2)[C@]2(C(=O)N3)[C@H](C(=O)Nc3nc4ccccc4s3)[C@H]3C(=O)O[C@H](c4ccccc4)[C@H](c4ccccc4)N3[C@@H]2c2ccc(O)cc2)cc1`
0.73

Look at this molecule and give its reported composite z-score. CN1C=C(C(=O)OCCS(C)(=O)=O)C(C(=O)OCCS(C)(=O)=O)=CC(c2ccc(CO)cc2)=CC1C1CC1 (configuration not stated)
-0.452

Look at this molecule and give its reported composite z-score. `COC(=O)[C@@]1(Cc2ccccc2)[C@H]2c3cc(C(=O)N(C)C)n(Cc4ccsc4Br)c3C[C@H]2CN1C(=O)c1ccccc1`
0.116

Look at this molecule and give its reported composite z-score. `CC(C)C[C@@H]1NC(=O)[C@@H]2C[C@H](C(=O)O)[C@H](c3cccc(OCCO)c3)N2C1=O`
0.708

Look at this molecule and give its reported composite z-score. `C=CC[C@]1(C(=O)NCc2ccccc2)N=C(c2ccc(OCCCO)cc2)O[C@H]1c1ccccc1N=[N+]=[N-]`
0.699

* * *

- target or test system: Alpha-bungarotoxin (Bungarus multicinctus) (UniProt P60615)
- Sequence (P60615 whole entry, looked up): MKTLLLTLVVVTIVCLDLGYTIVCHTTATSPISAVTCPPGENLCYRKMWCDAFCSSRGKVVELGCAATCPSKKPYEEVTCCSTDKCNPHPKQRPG
- assay details: alpha-bungarotoxin binders on microarray, profiling panel, artefact control for SMM control protein annotation, biochemical, small-molecule microarray, Alexa647 label, 635/667 nm fluorescence (AID 1117)
- experimental parameters: alpha-BTX-A647 binding fluorescence, higher = more signal
Kindly state composite z-score for each of the entries shown.
// print number alone

GET /values?readout=composite z-score&system=Alpha-bungarotoxin (Bungarus multicinctus) (UniProt P60615)&item= CN1C(=O)C2C=CC(C(O)c3ccc([N+](=O)[O-])cc3)N(N3CCCCC3)C2C1=O (centres undefined)
1.08

GET /values?readout=composite z-score&system=Alpha-bungarotoxin (Bungarus multicinctus) (UniProt P60615)&item= `COC(=O)[C@@]1(Cc2ccc(OC)cc2)[C@H]2c3cc(C(=O)N(C)C)n(Cc4ccccn4)c3C[C@H]2CN1C(=O)c1ccccc1`
1.13

GET /values?readout=composite z-score&system=Alpha-bungarotoxin (Bungarus multicinctus) (UniProt P60615)&item= OCCCC1=CC(c2cccs2)N(Cc2cc3c(cc2Br)OCO3)CC1 (centres undefined)
1.36

GET /values?readout=composite z-score&system=Alpha-bungarotoxin (Bungarus multicinctus) (UniProt P60615)&item= `C=CCNC(=O)[C@@H]1[C@H]2C(=O)O[C@H](c3ccccc3)[C@H](c3ccccc3)N2[C@H](c2ccc(O)cc2)[C@@]12C(=O)N(C(=O)OCCOC)c1ccc(C#CCNC(N)=O)cc12`
0.83

GET /values?readout=composite z-score&system=Alpha-bungarotoxin (Bungarus multicinctus) (UniProt P60615)&item= CC1CC/C=C\[C@H]2OC34C=CCN(C(C)(C)C)C(=O)[C@H]3N(CCO)C(=O)[C@@H]4C2C(=O)O1 (some centres undefined)
-0.153

GET /values?readout=composite z-score&system=Alpha-bungarotoxin (Bungarus multicinctus) (UniProt P60615)&item= `COC(=O)[C@@]1(Cc2ccc(F)cc2)[C@H]2c3cc(C(=O)N(C)C)n(Cc4ccc(Cl)c(C(F)(F)F)c4)c3C[C@H]2CN1C(=O)c1ccccc1`
2.36

GET /values?readout=composite z-score&system=Alpha-bungarotoxin (Bungarus multicinctus) (UniProt P60615)&item= `CN(C)C(=O)[C@]1(Cc2ccccc2N=[N+]=[N-])N=C(c2ccc(OCCCO)cc2)O[C@@H]1c1ccccc1N=[N+]=[N-]`
1.22

GET /values?readout=composite z-score&system=Alpha-bungarotoxin (Bungarus multicinctus) (UniProt P60615)&item= `O=C1N[C@@H](Cc2ccccc2)C(=O)N2[C@@H]1C[C@@H](C(=O)O)[C@H]2c1cccc(OCCO)c1`
1.14

GET /values?readout=composite z-score&system=Alpha-bungarotoxin (Bungarus multicinctus) (UniProt P60615)&item= `C#C[C@H](O[Si](C#Cc1ccc(Oc2ccccc2)cc1)(C(C)C)C(C)C)c1ccccc1`
0.495

GET /values?readout=composite z-score&system=Alpha-bungarotoxin (Bungarus multicinctus) (UniProt P60615)&item= CN1C=C(C(=O)OCCS(C)(=O)=O)C(C(=O)OCCS(C)(=O)=O)=CC(c2ccc(CO)cc2)=CC1C1CC1 (centres undefined)
0.274

GET /values?readout=composite z-score&system=Alpha-bungarotoxin (Bungarus multicinctus) (UniProt P60615)&item= `COc1ccc([C@H]2OC[C@@H]3C[C@@H](Cc4ccccc4)C(=O)N32)cc1`
-0.429

GET /values?readout=composite z-score&system=Alpha-bungarotoxin (Bungarus multicinctus) (UniProt P60615)&item= `C=CCOC(=O)[C@@H]1[C@H]2C(=O)O[C@H](c3ccccc3)[C@H](c3ccccc3)N2[C@H](c2ccc(OCCOC(=O)[C@H]3C[C@H]4C(=O)N5CCC[C@H]5C(=O)N4[C@H]3c3ccc(O)cc3)cc2)[C@@]12C(=O)Nc1ccc(I)cc12`
1.61

GET /values?readout=composite z-score&system=Alpha-bungarotoxin (Bungarus multicinctus) (UniProt P60615)&item= `CC(C)=CCN[C@H](CO)c1ccccc1`
0.189

GET /values?readout=composite z-score&system=Alpha-bungarotoxin (Bungarus multicinctus) (UniProt P60615)&item= `O=C1c2ccccc2[C@](Cc2ccccc2I)(C(=O)NCC(F)(F)F)[C@H](c2ccc(CO)cc2)N1Cc1ccccc1Cl`
0.918

GET /values?readout=composite z-score&system=Alpha-bungarotoxin (Bungarus multicinctus) (UniProt P60615)&item= `CC(C)C[C@@H]1NC(=O)[C@@H]2C[C@H](C(=O)O)[C@H](c3cccc(OCCO)c3)N2C1=O`
-0.937

GET /values?readout=composite z-score&system=Alpha-bungarotoxin (Bungarus multicinctus) (UniProt P60615)&item= `CCCC[C@H]1OB(O)C[C@H]2C1=C(COC)Cn1c(=O)n(-c3ccccc3)c(=O)n12`
0.0547

GET /values?readout=composite z-score&system=Alpha-bungarotoxin (Bungarus multicinctus) (UniProt P60615)&item= `COc1cccc(-c2cccc(=O)o2)c1`
0.141

GET /values?readout=composite z-score&system=Alpha-bungarotoxin (Bungarus multicinctus) (UniProt P60615)&item= `CC(C)NC(=O)[C@@]1(C)c2ccccc2C(=O)N(Cc2cc(C(F)(F)F)cc(C(F)(F)F)c2)[C@H]1c1ccc(CO)cc1`
-0.361

GET /values?readout=composite z-score&system=Alpha-bungarotoxin (Bungarus multicinctus) (UniProt P60615)&item= CCCCCN1CC=CC23O[C@@H]4/C=C\CCC(C)OC(=O)C4[C@H]2C(=O)N(C(C)CO)[C@@H]3C1=O (some centres undefined)
-0.453

GET /values?readout=composite z-score&system=Alpha-bungarotoxin (Bungarus multicinctus) (UniProt P60615)&item= CN1C(=O)C2C=CC(C(O)c3ccccc3)N(N(c3ccccc3)c3ccccc3)C2C1=O (centres undefined)
0.514

GET /values?readout=composite z-score&system=Alpha-bungarotoxin (Bungarus multicinctus) (UniProt P60615)&item= `CO[C@H]1O[C@H](CO)[C@@H](OC(=O)Nc2ccccc2)[C@H](OC(=O)Nc2ccccc2)[C@@H]1OC(=O)Nc1ccccc1`
0.796

GET /values?readout=composite z-score&system=Alpha-bungarotoxin (Bungarus multicinctus) (UniProt P60615)&item= `O=C1c2ccccc2[C@](Cc2ccccc2I)(C(=O)NCCN2CCOCC2)[C@H](c2ccc(CO)cc2)N1Cc1ccccc1Cl`
1.47

GET /values?readout=composite z-score&system=Alpha-bungarotoxin (Bungarus multicinctus) (UniProt P60615)&item= `CCOC(=O)C[C@H]1[C@H](OC(=O)c2ccccc2-c2ccccc2)[C@@H](NC(=O)CC(C)C)c2cc(OCCCO)ccc2N1C(=O)Cc1ccc(OC)cc1`
-0.213

GET /values?readout=composite z-score&system=Alpha-bungarotoxin (Bungarus multicinctus) (UniProt P60615)&item= `COc1ccc(CCNC(=O)[C@@]2(C)c3ccccc3C(=O)N(C(C)C)[C@H]2c2ccc(CO)cc2)cc1`
0.672

GET /values?readout=composite z-score&system=Alpha-bungarotoxin (Bungarus multicinctus) (UniProt P60615)&item= CCCCCN1CC=CC23O[C@@H]4C=CCCOC(=O)C4[C@H]2C(=O)N(CCCCCO)[C@@H]3C1=O (some centres undefined)
-0.99

GET /values?readout=composite z-score&system=Alpha-bungarotoxin (Bungarus multicinctus) (UniProt P60615)&item= `COC(=O)C(CC#Cc1ccc2c(c1)[C@]1(C(=O)N2)[C@H](C(=O)Nc2nc3ccccc3s2)[C@H]2C(=O)O[C@H](c3ccccc3)[C@H](c3ccccc3)N2[C@@H]1c1ccccc1OCCO)C(=O)OC`
2.31

GET /values?readout=composite z-score&system=Alpha-bungarotoxin (Bungarus multicinctus) (UniProt P60615)&item= `COc1ccc([Si](C)(C)[C@@H]2[C@@H](CC(=O)N3CCC[C@H]3CO)O[C@]3(C(=O)N(c4ccccc4)c4ccccc43)[C@H]2C)cc1`
1.09

GET /values?readout=composite z-score&system=Alpha-bungarotoxin (Bungarus multicinctus) (UniProt P60615)&item= `C=CCN1C(=O)[C@]2(O[C@H](CCn3cc([C@H](O)c4ccccc4)nn3)[C@@H]([Si](C)(C)c3ccc(OC)cc3)[C@@H]2C)c2cc(N3CCC3=O)ccc21`
1.07

GET /values?readout=composite z-score&system=Alpha-bungarotoxin (Bungarus multicinctus) (UniProt P60615)&item= `COC(=O)[C@@]1(Cc2ccc(F)cc2)[C@H]2c3cc(C(=O)N4CCCC4)n(CCCNc4ncc(C(F)(F)F)cc4Cl)c3C[C@H]2CN1C(=O)c1ccccc1`
0.493
